test system: Shigella dysenteriae; test: Antibacterial activity against Shigella dysenteriae after 24 hrs by twofold broth dilution method; type: functional
The compounds listed here are annotated with their MIC.
Report only the number, with the unit mg/L understood.

{"Compound": "COc1ccc2cc3[n+](cc2c1OCCN(CCn1cncc1[N+](=O)[O-])Cc1cccc(Cl)c1)CCc1cc2c(cc1-3)OCO2.[Cl-]", "Measured Target": "Shigella dysenteriae", "Result Units": "mg/L", "MIC": 256}
{"Compound": "COc1ccc2cc3[n+](cc2c1OC)CCc1cc2c(cc1-3)OCO2.[Cl-] [BERBERINE CHLORIDE]", "Measured Target": "Shigella dysenteriae", "Result Units": "mg/L", "MIC": 256}
{"Compound": "O=[N+]([O-])c1cncn1CCN(CCBr)Cc1ccc(Cl)c(Cl)c1", "Measured Target": "Shigella dysenteriae", "Result Units": "mg/L", "MIC": 8}

Pending compound:
What MIC value was documented for this compound, O=[N+]([O-])c1cncn1CCN(CCBr)Cc1ccc(Cl)cc1 ? 256
